Data origin, for the record: PubChem BioAssay (NCI)

# GI50 per record follows
system: PC-3 prostate; assay: NCI tumour cell line growth inhibition, 48 h

Below: 3 compounds and their reported GI50.
stdin: Could you please provide reported GI50 for C=C1C(=O)O[C@H]2[C@H]1CC/C(COC(=O)NCc1c[nH]c3ccccc13)=C\CC[C@@]1(C)O[C@@H]21 ? Thanks!
stdout: 5.16 µM

stdin: For the compound Oc1ccc(Nc2ccc3ccccc3c2)cc1 , report GI50.
stdout: 4.41 µM

stdin: Report GI50 for COC1C(O)CC(OC2CC(OC3CC(O[C@@H]4C(=O)c5c(cc6cc(OC7CC(OC8CC(O)C(O)C(C)O8)C(O)C(C)O7)c(C)c(O)c6c5O)CC4[C@H](OC)C(=O)O)OC(C)C3O)OC(C)C2O)OC1C (stereo partly drawn)
stdout: 2.4 µM

---
stdin: Consider the compound Nc1c(C(=O)Nc2ccccc2)sc2nc3c(cc12)CCCCC3 . State its measured GI50.
stdout: 0.547 µM

stdin: State its GI50: CCN1CCC(Nc2ccnc3cc(Cl)ccc23)CC1
stdout: 24.9 µM

stdin: Please look at this compound and report its GI50: CCCCN1CCCC[C@@H]1C(=O)N[C@H](C(=O)N(C)[C@H](C[C@@H](OC(C)=O)c1nc(C(=O)NC2CCC(C(=O)OC)CC2)cs1)C(C)C)C(C)C (stereo partly drawn)
stdout: 1.41 µM

stdin: Specify GI50 for O=C1C(Cl)=C(Nc2ccc(Nc3ccccc3)c(NC3=C(Cl)C(=O)c4ccccc4C3=O)c2)C(=O)c2ccccc21 and stop.
stdout: 3.63 µM

stdin: Supply reported GI50 belonging to this compound: CCN(CC)CCCC(C)Nc1ccnc2cc(Cl)ccc12 (stereo not drawn)
stdout: 98.4 µM

---

The entries below are paired with their reported TGI.
test system: A498 renal; experiment: NCI tumour cell line growth inhibition, 48 h
Answer format: numeric, µM implied, no suffix.

stdin: State its TGI: Cc1ccc2oc(=O)cc(/C(=C3/C=CC=N3)c3ccc[nH]3)c2c1
stdout: 0.92

stdin: Write down TGI measured for item CC1(C)[C@@H]2CC[C@]1(C)[C@H](OC(=O)/C=C/c1ccccc1)C2
stdout: 32.3

stdin: Tell me TGI reported for CCCc1cn2c(/C=N/N=C(N)N)c(-c3cccc([N+](=O)[O-])c3)nc2s1
stdout: 33.2

stdin: Quote TGI reported for Oc1ccc(Nc2ccc3ccccc3c2)cc1 please.
stdout: 23.2

---

test system: HCT-116 colon; assay: NCI tumour cell line growth inhibition, 48 h
The following molecules are shown together with reported GI50 values.

Below, each entry is followed by its recorded GI50 result.
stdin: Answer with reported GI50 of CC1CCN(Cc2ccc(NC(=O)c3cc4ccc5cccnc5c4[nH]3)cc2)CC1
stdout: 4.18 µM

stdin: // fetch GI50 given entry CSC(=NC#N)S/C=C/C(=O)c1ccccc1
stdout: 17.9 µM

stdin: Read off the recorded GI50 for O=C(Nc1ccc(Cc2ccccc2)cc1)Nc1nn(C(=O)Nc2ccc(Cc3ccccc3)cc2)c2ccccc12
stdout: > 100 µM

stdin: For the molecule CN(C)CCCN(CCC1CCCCC1)CCC1CCCCC1 , report GI50.
stdout: 1.57 µM

stdin: State its GI50: CN(CCCCCl)P(=O)(OCCS(=O)(=O)CC(NC(=O)CCC(N)C(=O)O)C(=O)NC(C(=O)O)c1ccccc1)OCC1OC(n2ccc(N)nc2=O)C(O)C1O (configuration not stated)
stdout: 5.22 µM

Further cases:
stdin: Let me know recorded GI50 for CCN1CCC(Nc2ccnc3cc(Cl)ccc23)CC1 , thanks.
stdout: 8.82 µM

stdin: Write down GI50 measured for item Cn1c(=O)c(Oc2ccc(F)cc2F)cc2cnc(NC(C)(C)CO)nc21
stdout: > 25 µM

stdin: For the molecule C=C(CN1CCN(c2ccc(C(F)(F)F)cc2)CC1)c1ccc(C(=O)Nc2ccccc2N)cc1 , give its measured GI50 value.
stdout: 11.4 µM

stdin: Could you please provide reported GI50 for CCN(CC)CCCC(C)Nc1ccnc2cc(Cl)ccc12 (configuration not stated) ? Thanks!
stdout: 25.6 µM

stdin: # return recorded GI50 for input CCCCC(CCCCCC(CCCC)NCc1ccc2c(c1)OCO2)NCc1ccc2c(c1)OCO2 (configuration not stated)
stdout: 0.194 µM

stdin: Quick one: give measured GI50 for N#Cc1c(NCc2ccccc2)nc(NCc2ccccc2)c(C#N)c1-c1ccc(O)cc1
stdout: 14.5 µM

stdin: Quote GI50 reported for Oc1ccc(Nc2ccc3ccccc3c2)cc1 please.
stdout: 9.23 µM
